Origin of measurements: the supplement of paper PMC6897291

# growth inhibition by drug alone per record follows
# System: RIVA
# TEST: growth inhibition by drug alone (1 - RLU/untreated control) (fraction); higher = stronger inhibition
# CONDITION PARAMETERS: 100 nM; time (day): 5; 177Lu-lilotomab satetraxetan 0 ug/ml
OBSERVABLE: growth inhibition by drug alone

>>> print(df.to_string())
                         compound_structure                       observable  recorded_result
0  Cc1c(CCOc2ccc(C(=O)O)cc2)c2cc(Cl)ccc2n1C(c1ccccc1)c1ccccc1  growth inhibition by drug alone           -0.564
1  O=C(O)CC[C@H]1CC[C@@](c2cc(F)ccc2F)(S(=O)(=O)c2ccc(Cl)cc2)CC1  growth inhibition by drug alone           -0.179
2     COc1c(C)cnc(Cn2cnc3c(Cl)nc(N)nc32)c1C  growth inhibition by drug alone           0.0061
3  NC(=O)Nc1cc(-c2cccc(F)c2)sc1C(=O)N[C@H]1CCCNC1  growth inhibition by drug alone           0.0116
4  CC(C)(C)c1[nH]cnc1/C=c1\[nH]c(=O)/c(=C/c2ccccc2)[nH]c1=O  growth inhibition by drug alone            0.959
5  CC(C)(C)c1cc(NC(=O)Nc2ccc(-c3cn4c(n3)sc3cc(OCCN5CCOCC5)ccc34)cc2)no1  growth inhibition by drug alone           -0.369
